# tgt: LRRK2 G2019S (Homo sapiens (Human), UniProt Q5S007, G2019S)
# Sequence (Q5S007 whole entry G2019S): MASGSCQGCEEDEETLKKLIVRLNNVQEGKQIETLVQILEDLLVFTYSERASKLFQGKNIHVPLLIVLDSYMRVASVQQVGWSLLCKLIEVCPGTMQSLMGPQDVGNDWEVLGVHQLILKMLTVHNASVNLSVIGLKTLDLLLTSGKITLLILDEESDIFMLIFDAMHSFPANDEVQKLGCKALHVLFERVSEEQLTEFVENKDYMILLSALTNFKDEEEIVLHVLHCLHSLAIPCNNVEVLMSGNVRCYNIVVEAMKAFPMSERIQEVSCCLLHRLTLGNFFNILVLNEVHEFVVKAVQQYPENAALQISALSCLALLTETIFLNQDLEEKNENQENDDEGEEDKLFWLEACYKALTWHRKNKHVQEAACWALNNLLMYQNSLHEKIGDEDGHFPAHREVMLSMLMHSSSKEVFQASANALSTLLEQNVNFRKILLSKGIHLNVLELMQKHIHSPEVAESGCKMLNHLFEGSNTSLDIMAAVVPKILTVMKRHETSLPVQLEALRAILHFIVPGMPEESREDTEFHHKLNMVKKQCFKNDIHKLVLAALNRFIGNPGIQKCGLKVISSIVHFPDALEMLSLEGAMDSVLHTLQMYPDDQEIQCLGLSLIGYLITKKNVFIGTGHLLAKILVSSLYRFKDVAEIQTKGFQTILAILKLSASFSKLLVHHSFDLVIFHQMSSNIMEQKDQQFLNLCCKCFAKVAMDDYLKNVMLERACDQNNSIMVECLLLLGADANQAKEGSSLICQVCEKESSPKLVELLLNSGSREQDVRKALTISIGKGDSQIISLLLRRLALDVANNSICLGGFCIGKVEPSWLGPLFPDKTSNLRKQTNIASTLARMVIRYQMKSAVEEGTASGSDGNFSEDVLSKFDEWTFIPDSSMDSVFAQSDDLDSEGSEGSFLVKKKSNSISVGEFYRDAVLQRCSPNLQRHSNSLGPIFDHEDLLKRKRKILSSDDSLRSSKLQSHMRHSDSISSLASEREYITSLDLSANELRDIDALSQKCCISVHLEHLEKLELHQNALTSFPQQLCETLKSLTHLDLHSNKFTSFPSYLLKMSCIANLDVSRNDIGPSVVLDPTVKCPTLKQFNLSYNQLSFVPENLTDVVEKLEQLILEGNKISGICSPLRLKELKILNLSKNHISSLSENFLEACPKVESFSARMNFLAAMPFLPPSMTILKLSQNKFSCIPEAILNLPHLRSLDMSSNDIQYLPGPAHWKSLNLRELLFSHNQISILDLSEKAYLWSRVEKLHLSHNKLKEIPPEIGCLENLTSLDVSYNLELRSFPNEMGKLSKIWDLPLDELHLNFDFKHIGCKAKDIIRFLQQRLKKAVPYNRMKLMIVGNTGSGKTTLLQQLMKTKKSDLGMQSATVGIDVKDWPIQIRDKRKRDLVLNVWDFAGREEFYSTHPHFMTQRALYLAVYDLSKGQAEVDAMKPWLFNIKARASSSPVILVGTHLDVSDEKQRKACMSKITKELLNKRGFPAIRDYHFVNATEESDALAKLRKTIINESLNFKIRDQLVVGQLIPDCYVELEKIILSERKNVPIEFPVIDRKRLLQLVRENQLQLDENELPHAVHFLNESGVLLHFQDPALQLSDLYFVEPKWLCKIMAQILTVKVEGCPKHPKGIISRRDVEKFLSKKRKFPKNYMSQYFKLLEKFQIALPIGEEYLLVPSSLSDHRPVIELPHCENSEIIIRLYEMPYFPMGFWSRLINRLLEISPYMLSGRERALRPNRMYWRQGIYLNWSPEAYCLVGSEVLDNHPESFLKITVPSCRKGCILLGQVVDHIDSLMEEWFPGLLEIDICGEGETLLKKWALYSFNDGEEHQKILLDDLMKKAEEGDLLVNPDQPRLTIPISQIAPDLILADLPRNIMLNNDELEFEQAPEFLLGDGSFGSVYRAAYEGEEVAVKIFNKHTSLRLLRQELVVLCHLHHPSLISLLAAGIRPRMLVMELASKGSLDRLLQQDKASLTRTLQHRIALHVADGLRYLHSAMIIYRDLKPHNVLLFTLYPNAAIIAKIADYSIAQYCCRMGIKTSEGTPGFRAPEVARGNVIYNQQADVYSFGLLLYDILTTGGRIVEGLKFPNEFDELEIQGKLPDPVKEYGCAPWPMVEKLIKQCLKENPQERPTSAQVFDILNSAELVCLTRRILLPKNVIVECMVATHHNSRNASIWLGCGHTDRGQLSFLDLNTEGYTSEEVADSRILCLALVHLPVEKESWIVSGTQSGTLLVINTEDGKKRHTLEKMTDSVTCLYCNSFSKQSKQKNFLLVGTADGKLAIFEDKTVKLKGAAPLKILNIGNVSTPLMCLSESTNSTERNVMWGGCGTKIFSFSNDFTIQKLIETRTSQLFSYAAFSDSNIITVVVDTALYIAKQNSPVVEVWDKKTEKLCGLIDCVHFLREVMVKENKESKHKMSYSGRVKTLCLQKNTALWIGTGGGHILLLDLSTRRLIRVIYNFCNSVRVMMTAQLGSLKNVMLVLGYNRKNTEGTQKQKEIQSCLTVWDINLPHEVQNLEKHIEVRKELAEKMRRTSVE
# method_description: LRRK2 G2019S Kinase Assay (Adapta)
# test_parameters: 100 μM ATP, LRRKtide substrate; read-out: LRRK2_G2019S IC50
pIC50: −log10 of the molar value.
property_measured: pIC50

## Task Entry Cc1ccc(-n2cccn2)cc1-c1ccc2nc(NC(=O)[C@@H]3C[C@@H]3F)cn2c1 has what pIC50?
## Result 6.00 to 7.00

## Task Entry Cc1cccc(-c2ccc3nc(NC(=O)[C@@H]4C[C@@H]4F)cn3c2)c1C has what pIC50?
## Result 6.00 to 7.00

## Task Entry Cc1c(-c2ccc3nc(NC(=O)[C@@H]4C[C@@H]4F)cn3c2)ccc(F)c1F has what pIC50?
## Result 7.00 to 8.00

## Task Entry Cc1c(F)ccc(-c2ccc3nc(NC(=O)[C@@H]4C[C@@H]4F)cn3c2)c1C has what pIC50?
## Result 6.00 to 7.00

---
## Task Entry Cc1c(F)cccc1-c1ccc2nc(NC(=O)C3CC(F)C3)cn2c1 (centres unmarked) has what pIC50?
## Result 7.00 to 8.00

## Task Entry Cc1cccc(F)c1-c1ccc2nc(NC(=O)[C@@H]3C[C@@H]3F)cn2c1 has what pIC50?
## Result 7.00 to 8.00

## Task Entry Cc1cc(F)c(O)cc1-c1ccc2nc(NC(=O)[C@@H]3C[C@@H]3F)cn2c1 has what pIC50?
## Result 7.00 to 8.00

## Task Entry O=C(Nc1cn2cc(-c3ccc4sc(=O)[nH]c4c3)ccc2n1)[C@@H]1C[C@@H]1F has what pIC50?
## Result 6.00 to 7.00

The reported measurements were obtained from patent US11098044B2.
